target: Inadl_1, Q8NI35; assay: holdup assay; set-up: key: below the threshold = too weak to quantify, mostly under pKd 3.1 to 4; settings: plain residues with an end cap or a label only (N-terminal biotin on a linker: ttds)
Sequence (Q8NI35 113-229): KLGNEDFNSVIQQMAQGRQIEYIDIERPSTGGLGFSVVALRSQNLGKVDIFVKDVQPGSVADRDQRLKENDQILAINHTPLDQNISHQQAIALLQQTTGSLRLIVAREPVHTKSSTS
Reported metric: pKd

Please review the following examples before continuing.
SRPQRTQTQV [HPV67-E6, A4U7F2]    below the threshold
PKTPPTDTSV [KIR3DL3, Q8N743]    3.57
ERKLSSESQV [LRP4, O75096]    below the threshold
SVWLRKETRV [CYSLTR2, Q9NS75]    below the threshold

Request: Reported pKd for QSARYRDTEL [TJP2, Q9UDY2] : what is it?
Response: below the threshold
